test system: NCl-H460 cell line; test: Proliferation assay (NCI-H460 cell line); format: cell-based; details: Homo sapiens, NCI-H460, 96 h; NCl-H460, 4 days incubation, crystal violet staining; read-out: Biological Assay 2: Proliferation assay (NCl-H460 cell line) median IC50
Reported pIC50 by item:
Please express pIC50 as -log10 of the molar concentration.

CCOc1cc(F)c(Cn2nc(-c3nc(Nc4ccncn4)nc(Nc4ccncn4)n3)c(C)c2C2CC2)c(F)c1: 5.00

What pIC50 value was documented for this molecule, CCOc1cc(F)c(Cn2nc(-c3nc(Nc4ccncc4)c(N4CCOCC4)c(Nc4ccncc4)n3)c(C)c2C2CC2)c(F)c1 ?
5.96
